The reported measurements were obtained from paper PMC9948168.

Test: iCELLigence real-time cell analysis
Format: cell-based, human
Conditions: human, MCF-12A cells; MCF-12A; 20 μM; 48 h; relative to control; read-out: cell viability (% ± SEM)
Overview of recorded viability at 48 h, 20 µM for various molecules

CC/C(=C(\c1ccccc1)c1ccc(OCCN(C)C)cc1)c1ccccc1 [tamoxifen, reference compound]: 84%

Consider now this further molecule.
molecule COc1cc(C=C2C(=O)Nc3ccc(Cl)cc32)ccc1OCc1ccccn1 (mixture of isomers) [6j] , viability at 48 h, 20 µM observed: 82%

---

Test: iCELLigence real-time cell analysis
Assay type: cell-based, human
Settings: human, MCF-12A cells (non-tumorigenic mammary epithelial); MCF-12A; 2 μM; 72 h; relative to control; read-out: cell viability (% ± SEM)
Experimental: Therefore, compound 6j was applied in serial doses (2, 5, 10, 20, 50, and 100 μM) to MCF-7 cells and parallel to MCF-12A cells to determine the selectivity and safety. […] A total of 120 h of analyses were monitored, with cell viability measurements taken every 15 min. […] In addition, the viability percentage values for each dose in these periods were calculated and are summarized in Table 3 for MCF-7 and Table 4 for MCF-12A. […]
endpoint label: viability at 72 h, 2 µM (%)
Your answer should be a plain number; it is taken to be in %.

Field viability at 72 h, 2 µM (entry COc1cc(C=C2C(=O)Nc3ccc(Cl)cc32)ccc1OCc1ccccn1 (mixture of isomers) ) reads 97.4

---

Assay: iCELLigence real-time cell analysis
Format: cell-based, human
Conditions: human, MCF-12A cells (non-tumorigenic mammary epithelial); MCF-12A; 5 μM; 96 h; relative to control; read-out: cell viability (% ± SEM)
endpoint label: viability at 96 h, 5 µM
Reply with the number and its unit after it.

viability at 96 h, 5 µM reading for COc1cc(C=C2C(=O)Nc3ccc(Cl)cc32)ccc1OCc1ccccn1 (mixture of isomers) : 92.2%

---

Collected viability at 72 h, 20 µM values appear next to each entry.
Assay: iCELLigence real-time cell analysis
Format: cell-based, human
Settings: human, MCF-12A cells (non-tumorigenic mammary epithelial); MCF-12A; 20 μM; 72 h; relative to control; read-out: cell viability (% ± SEM)
Give just the number in %; leave the unit off.

CC/C(=C(\c1ccccc1)c1ccc(OCCN(C)C)cc1)c1ccccc1 [tamoxifen, reference compound]: 84

Noted for COc1cc(C=C2C(=O)Nc3ccc(Cl)cc32)ccc1OCc1ccccn1 (mixture of isomers) [6j] : its viability at 72 h, 20 µM reads 80.6

---

Experiment: iCELLigence real-time cell analysis
Format: cell-based, human
Settings: human, MCF-12A cells (non-tumorigenic mammary epithelial); MCF-12A; 10 μM; 72 h; relative to control; read-out: cell viability (% ± SEM)
Description: Therefore, compound 6j was applied in serial doses (2, 5, 10, 20, 50, and 100 μM) to MCF-7 cells and parallel to MCF-12A cells to determine the selectivity and safety. […] A total of 120 h of analyses were monitored, with cell viability measurements taken every 15 min. […] In addition, the viability percentage values for each dose in these periods were calculated and are summarized in Table 3 for MCF-7 and Table 4 for MCF-12A. […]
endpoint label: viability at 72 h, 10 µM (%)
Respond numerically; units are % and should not be typed.

Value of measured viability at 72 h, 10 µM for the entry COc1cc(C=C2C(=O)Nc3ccc(Cl)cc32)ccc1OCc1ccccn1 (mixture of isomers) : 87.9

---

Experiment: iCELLigence real-time cell analysis
Type: cell-based, human
Settings: human, MCF-12A cells (non-tumorigenic mammary epithelial); MCF-12A; 100 μM; 72 h; relative to control; read-out: cell viability (% ± SEM)
endpoint label: viability at 72 h, 100 µM (%)
Lab book: enter the figure in %, no units written.

Notebook: COc1cc(C=C2C(=O)Nc3ccc(Cl)cc32)ccc1OCc1ccccn1 (mixture of isomers) , viability at 72 h, 100 µM read as 62.6

---

Assay: iCELLigence real-time cell analysis
Assay type: cell-based, human
Settings: human, MCF-12A cells; MCF-12A; 2 μM; 24 h; relative to control; read-out: cell viability (% ± SEM)
endpoint label: viability at 24 h, 2 µM (%)
Write the answer as a number in %, unit excluded.

Record COc1cc(C=C2C(=O)Nc3ccc(Cl)cc32)ccc1OCc1ccccn1 (mixture of isomers) . Reported viability at 24 h, 2 µM: 98.7

---

Assay: iCELLigence real-time cell analysis
Format: cell-based, human
Details: human, MCF-12A cells (non-tumorigenic mammary epithelial); MCF-12A; 10 μM; 96 h; relative to control; read-out: cell viability (% ± SEM)
endpoint label: viability at 96 h, 10 µM (%)
Note: unit % is implicit; provide only the numeric part.

Summary for this compound, COc1cc(C=C2C(=O)Nc3ccc(Cl)cc32)ccc1OCc1ccccn1 (mixture of isomers) : viability at 96 h, 10 µM is 87.9

---

The entries below come with measured inhibition at 10 µM values attached.
System: T-47D
Experiment: NCI-60 one-dose screening
Format: cell-based
Conditions: Homo sapiens, T47D, Breast Cancer, read-out: GI (%)
Record the value in %, omitting the unit from your answer.

Reference set (4 entries):
COc1cc(/C=C2/C(=O)Nc3cc(Cl)ccc32)ccc1OCc1ccccc1: -0.39
COc1cc(/C=C2/C(=O)Nc3ccc(Cl)cc32)ccc1OCc1ccccc1: 5.17
COc1cc(/C=C2/C(=O)Nc3ccccc32)ccc1OCc1ccc(F)cc1: -6.65
COc1cc(C=C2C(=O)Nc3ccc(Cl)cc32)ccc1OCc1ccc(F)cc1 (mixture of isomers): 19.5

From here, focus on the item given below.
Tested on T-47D: COc1cc(C=C2C(=O)Nc3ccccc32)ccc1OCc1ccccc1 (mixture of isomers) . Observed inhibition at 10 µM: -13

---

Known inhibition at 10 µM of a selection of compounds
System: MDA-MB-231/ATCC
Experiment: NCI-60 one-dose screening
Type: cell-based
Settings: Homo sapiens, Breast Cancer, read-out: GI (%)
Response body: numeric value in %, unit text excluded.

Documented inhibition at 10 µM of COc1cc(C=C2C(=O)Nc3cc(Cl)ccc32)ccc1OCc1ccc(Cl)cc1 (mixture of isomers) : 8.37

For record COc1cc(C=C2C(=O)Nc3ccccc32)ccc1OCc1ccccc1 (mixture of isomers) the listed inhibition at 10 µM is 5.3

Entry COc1cc(C=C2C(=O)Nc3ccc(Cl)cc32)ccc1OCc1ccc(Cl)cc1 (mixture of isomers) , inhibition at 10 µM reported as 21.6

Note to self: inhibition at 10 µM recorded for `COc1cc(/C=C2/C(=O)Nc3cc(Cl)ccc32)ccc1O` was 50.8

---

Tested on: SN12C
Test: NCI-60 one-dose screening
Type: cell-based
Settings: Homo sapiens, Renal Cancer, read-out: GI (%)
endpoint label: inhibition at 10 µM (%)
Please respond with the number in % and leave the unit unwritten.

# count of solved cases: 3
COc1cc(C=C2C(=O)Nc3ccc(Cl)cc32)ccc1OCc1ccccn1 (mixture of isomers): 3.96
COc1cc(C=C2C(=O)Nc3ccc(Cl)cc32)ccc1O (mixture of isomers): 14.6
COc1cc(C=C2C(=O)Nc3ccc(Cl)cc32)ccc1OCc1ccc(F)cc1 (mixture of isomers): 11.1

Field inhibition at 10 µM (entry COc1cc(C=C2C(=O)Nc3ccc(Cl)cc32)ccc1OCc1ccc(Cl)cc1 (mixture of isomers) ) reads 9.18

Noted for `COc1cc(/C=C2/C(=O)Nc3ccc(Cl)cc32)ccc1OCc1ccccc1` : its inhibition at 10 µM reads 3.2

Lab note: measured inhibition at 10 µM of `COc1cc(/C=C2/C(=O)Nc3ccccc32)ccc1OCc1ccc(Cl)cc1` was -2.93

Short answer for COc1cc(C=C2C(=O)Nc3ccccc32)ccc1OCc1ccccn1 (mixture of isomers) : inhibition at 10 µM was 2.56

---

Assay: iCELLigence real-time cell analysis
Format: cell-based, human
Conditions: human, MCF-12A cells; MCF-12A; 5 μM; 24 h; relative to control; read-out: cell viability (% ± SEM)
endpoint label: viability at 24 h, 5 µM (%)
The reply should be a number in %, with the unit left off.

Reported viability at 24 h, 5 µM ( COc1cc(C=C2C(=O)Nc3ccc(Cl)cc32)ccc1OCc1ccccn1 (mixture of isomers) ) = 99.1

---

Reported inhibition at 10 µM values for a set of molecules
System: SNB-75
Test: NCI-60 one-dose screening
Format: cell-based
Conditions: Homo sapiens, SNB-75, CNS Cancer, read-out: GI (%)
Report only the number, with the unit % understood.

Worked examples follow.
COc1cc(/C=C2/C(=O)Nc3ccccc32)ccc1OCc1ccc(F)cc1: -5.65
COc1ccc(COc2ccc(/C=C3/C(=O)Nc4cc(Cl)ccc43)cc2OC)cc1: -12.8
COc1cc(C=C2C(=O)Nc3ccccc32)ccc1OCc1ccccn1 (mixture of isomers): -6.42
COc1cc(C=C2C(=O)Nc3ccccc32)ccc1OCc1ccccc1 (mixture of isomers): -0.57

Looking up `COc1ccc(COc2ccc(/C=C3/C(=O)Nc4ccccc43)cc2OC)cc1` , I see its inhibition at 10 µM listed as 2.65
